system: UACC-257 melanoma; assay: NCI-60 one-dose screen, 48 h (100 = growth as untreated, 0 = no growth, -100 = all killed); conditions: 10 µM
About 83,000 compounds went through this panel and 20% of them were active in at least one assay; those are over-represented in the sample as a whole.
The compounds listed here are annotated with their growth.

{"columns": ["compound", "growth, %"],
 "data": [
  ["O=C(c1ccccc1)C(Nc1ccccc1)c1ccccc1 (centres undefined)", 93.4],
  ["CCOC(=O)[C@@H]1[C@H](c2ccccc2)[C@H]([N+](=O)[O-])[C@H](c2cn(-c3ccccc3)nc2C)N1Cc1ccccc1", 64.2],
  ["Oc1cc(O)c(Br)cc1Br", 102],
  ["CCOC(=O)c1cc2c(n1Cc1ccccc1)-c1oncc1CC2", 103]
]}

====

test system: HS 578T breast; experiment: NCI-60 one-dose screen, 48 h (100 = growth as untreated, 0 = no growth, -100 = all killed); conditions: 10 µM
This is part of a sample that, as a whole, favours compounds with a hit. Of some 83,000 tested, about 20% had one in any assay. Activity calls are given as the source filed them. The calls were made as follows: active = growth percent below 10; inactive = the rest.
The compounds listed here are annotated with their growth.

{"columns": ["smiles string", "target system", "growth"],
 "data": [
  ["O=C(O)c1cc(C(F)(F)F)cc(C(F)(F)F)c1", "HS 578T breast", "109% (inactive)"],
  ["Clc1cc(Cl)c(OCCCCCCN2CCNCC2)c(Cl)c1", "HS 578T breast", "55.3% (inactive)"],
  ["CNC(=O)c1cc(Oc2ccc(NC(=O)Nc3ccc(Cl)c(C(C)(C)C)c3)c(F)c2)ccn1", "HS 578T breast", "64% (inactive)"],
  ["CC1(C)CCc2cc(-c3ccn(S(=O)(=O)c4ccc(Cl)cc4)n3)ccc2O1", "HS 578T breast", "99.5% (inactive)"],
  ["COc1ccc(-c2nnc(COc3ccc(NC(=O)Nc4cccc(C(F)(F)F)c4)cc3F)o2)cc1", "HS 578T breast", "67.3% (inactive)"],
  ["CCOCC[P+](c1ccccc1)(c1ccccc1)c1ccccc1", "HS 578T breast", "79.1% (inactive)"],
  ["CC(=O)CS(C)(=O)=O", "HS 578T breast", "107% (inactive)"],
  ["C[C@@H]1N=C(c2ccc(Br)cc2)Nc2nc3ccccn3c2C1=O", "HS 578T breast", "71.3% (inactive)"]
]}

====

system: NCI-H522 lung; test: NCI-60 one-dose screen, 48 h; details: 10 µM
The panel holds about 83,000 compounds, 20% with a hit somewhere; the sample as a whole holds those more often. The source made the active and inactive calls. How the source made its calls: active means growth percent below 10; inactive means the rest.
Outcomes: active, inactive

{"columns": ["molecule", "target system", "label"],
 "data": [
  ["COC(=O)[C@]12CC[C@@H](C)[C@H](C)[C@@H]1C1=CC[C@@H]3[C@@]4(C)C/C(=N\\O)[C@H](O)[C@@]5(C)COC(=C45)C[C@@]3(C)[C@]1(C)CC2", "NCI-H522 lung", "active"],
  ["Nc1ccc(Sc2ccc3c4c2cccc4c(=O)n2c4ccccc4nc32)cc1", "NCI-H522 lung", "inactive"],
  ["S=C(Cc1ccc(-c2ccccc2)cc1)N1CCOCC1", "NCI-H522 lung", "inactive"],
  ["COc1ccc(C2C=C(c3ccc(Cl)c(Cl)c3)N=C3SC(C)=CN32)cc1 (stereo not drawn)", "NCI-H522 lung", "inactive"],
  ["COc1cc(Cl)cc(-c2nn(-c3cccc(NC(=O)Nc4cccc(C(F)(F)F)c4)c3)cc2-c2ccncc2)c1", "NCI-H522 lung", "active"],
  ["Oc1[nH]c2ccccc2c1/C=c1/cc2c(c(-c3ccc(C(F)(F)F)cc3)n1)=Nc1ccccc1-2", "NCI-H522 lung", "inactive"],
  ["NC(N)=NS(=O)(=O)c1ccc(Nc2ccc3nnc(-c4ccncc4)n3n2)cc1", "NCI-H522 lung", "active"],
  ["N#Cc1ncc(-c2cc(F)ccc2F)c(NC2CCCCCC2)n1", "NCI-H522 lung", "inactive"],
  ["Clc1ccc(-c2nc(-c3cccs3)cn3ccnc23)cc1", "NCI-H522 lung", "inactive"],
  ["COc1ccccc1S(=O)(=O)Nc1ccc2c(c1)CN(C)C(=O)N2", "NCI-H522 lung", "inactive"],
  ["COc1cc(CSc2nc3ccc(Cl)cc3c(=O)n2-c2ccccc2)cc(OC)c1OC", "NCI-H522 lung", "inactive"],
  ["NC(=O)c1ccc(Br)o1", "NCI-H522 lung", "inactive"],
  ["Cc1cccc2c1O/C(=C\\c1ncc([N+](=O)[O-])n1C)C2=O", "NCI-H522 lung", "active"],
  ["Nc1nc(SCC#CCCl)c2[nH]cnc2n1", "NCI-H522 lung", "inactive"],
  ["CC(=O)Nc1nc(C)c(C(=O)NNC=O)s1", "NCI-H522 lung", "inactive"],
  ["Cc1cccc2c(Nc3ccc(NS(C)(=O)=O)cc3)c3ccc([N+](=O)[O-])cc3nc12", "NCI-H522 lung", "active"],
  ["O=[N+]([O-])c1ccc(-c2nc(Cl)c3c(n2)CCCC3)o1", "NCI-H522 lung", "active"],
  ["N=C(N)c1ccc(-c2ccc(-c3ccccc3)s2)s1", "NCI-H522 lung", "active"],
  ["O=C(NCCc1nccs1)c1cnc2c(S)cccc2c1", "NCI-H522 lung", "active"],
  ["C[N+]1=C(/C=C/c2ccc(I)cc2)C(C)(C)c2ccccc21", "NCI-H522 lung", "inactive"],
  ["CC(C)c1[nH]nc2c(NCc3ccc(-c4ccccn4)cc3)nc(SCCN(C)C)nc12", "NCI-H522 lung", "active"],
  ["CCCc1ccnc(NS(=O)(=O)c2ccc(N)cc2)n1", "NCI-H522 lung", "inactive"],
  ["COc1ccc(/C(CS(=O)(=O)c2ccccc2)=N\\O)cc1", "NCI-H522 lung", "inactive"]
]}

Source listed as PubChem BioAssay (NCI).
